System: EKVX NSCLC
test_name: NCI-60 one-dose screen, 48 h
measurement_setup: 10 µM unless noted
Compounds without any hit were thinned out: in the full panel of roughly 83,000, 20% have a hit. Activity calls are given as the source filed them. How the source made its calls: active means growth percent below 10; inactive means the rest.
The reply should name one outcome from active, inactive

{"molecule": "CN1CCN(CC(O)COc2c(Br)c(Br)c(Br)c3c2OC(C)(C)C3)CC1 (centres undefined)", "cat": "inactive"}

Hi, do you know how `CC(=O)Nc1ccc([I+]c2ccc([N+](=O)[O-])cc2)cc1` came out in this test?
inactive

Fill in: this test's call for `CS(=O)(=O)Nc1cccc(-c2ccc3ncnc(Nc4ccc(F)c(Cl)c4)c3c2)c1` is ___
active

# outcome recorded in this test, key = `O=C(O)c1cccc2oc(-c3ccccc3O)nc12`
inactive

Answer briefly: the call reported for `CCc1c(C)c2cc3nc(NCc4ccccc4)oc3c(C)c2oc1=O` in this assay.
inactive

Test call for this molecule, please: `Cc1cc[n+](CCCC[n+]2ccc(C)cc2)cc1`
inactive

Entry `Cc1cc2nc(-c3c(N)ncc(C#N)c3-c3ccc(Cl)cc3)[nH]c2cc1C` : call = ?
inactive

For CC(CCC(=O)O)[C@H]1CCC2C3C(=O)C[C@@H]4CC(=O)CC[C@]4(C)C3CC(=O)[C@@]21C (some centres undefined) , what call appears in the results of this test?
inactive

Dear all, I need the recorded test outcome for COc1cc(NC(C)CCCN2C(=O)c3ccccc3C2=O)c2nc(C)ccc2c1OC (centres undefined) , thank you.
inactive
